- Study Target: Voltage-dependent L-type calcium channel subunit alpha-1D (Rattus norvegicus, UniProt P27732)
- Sequence (P27732 whole entry): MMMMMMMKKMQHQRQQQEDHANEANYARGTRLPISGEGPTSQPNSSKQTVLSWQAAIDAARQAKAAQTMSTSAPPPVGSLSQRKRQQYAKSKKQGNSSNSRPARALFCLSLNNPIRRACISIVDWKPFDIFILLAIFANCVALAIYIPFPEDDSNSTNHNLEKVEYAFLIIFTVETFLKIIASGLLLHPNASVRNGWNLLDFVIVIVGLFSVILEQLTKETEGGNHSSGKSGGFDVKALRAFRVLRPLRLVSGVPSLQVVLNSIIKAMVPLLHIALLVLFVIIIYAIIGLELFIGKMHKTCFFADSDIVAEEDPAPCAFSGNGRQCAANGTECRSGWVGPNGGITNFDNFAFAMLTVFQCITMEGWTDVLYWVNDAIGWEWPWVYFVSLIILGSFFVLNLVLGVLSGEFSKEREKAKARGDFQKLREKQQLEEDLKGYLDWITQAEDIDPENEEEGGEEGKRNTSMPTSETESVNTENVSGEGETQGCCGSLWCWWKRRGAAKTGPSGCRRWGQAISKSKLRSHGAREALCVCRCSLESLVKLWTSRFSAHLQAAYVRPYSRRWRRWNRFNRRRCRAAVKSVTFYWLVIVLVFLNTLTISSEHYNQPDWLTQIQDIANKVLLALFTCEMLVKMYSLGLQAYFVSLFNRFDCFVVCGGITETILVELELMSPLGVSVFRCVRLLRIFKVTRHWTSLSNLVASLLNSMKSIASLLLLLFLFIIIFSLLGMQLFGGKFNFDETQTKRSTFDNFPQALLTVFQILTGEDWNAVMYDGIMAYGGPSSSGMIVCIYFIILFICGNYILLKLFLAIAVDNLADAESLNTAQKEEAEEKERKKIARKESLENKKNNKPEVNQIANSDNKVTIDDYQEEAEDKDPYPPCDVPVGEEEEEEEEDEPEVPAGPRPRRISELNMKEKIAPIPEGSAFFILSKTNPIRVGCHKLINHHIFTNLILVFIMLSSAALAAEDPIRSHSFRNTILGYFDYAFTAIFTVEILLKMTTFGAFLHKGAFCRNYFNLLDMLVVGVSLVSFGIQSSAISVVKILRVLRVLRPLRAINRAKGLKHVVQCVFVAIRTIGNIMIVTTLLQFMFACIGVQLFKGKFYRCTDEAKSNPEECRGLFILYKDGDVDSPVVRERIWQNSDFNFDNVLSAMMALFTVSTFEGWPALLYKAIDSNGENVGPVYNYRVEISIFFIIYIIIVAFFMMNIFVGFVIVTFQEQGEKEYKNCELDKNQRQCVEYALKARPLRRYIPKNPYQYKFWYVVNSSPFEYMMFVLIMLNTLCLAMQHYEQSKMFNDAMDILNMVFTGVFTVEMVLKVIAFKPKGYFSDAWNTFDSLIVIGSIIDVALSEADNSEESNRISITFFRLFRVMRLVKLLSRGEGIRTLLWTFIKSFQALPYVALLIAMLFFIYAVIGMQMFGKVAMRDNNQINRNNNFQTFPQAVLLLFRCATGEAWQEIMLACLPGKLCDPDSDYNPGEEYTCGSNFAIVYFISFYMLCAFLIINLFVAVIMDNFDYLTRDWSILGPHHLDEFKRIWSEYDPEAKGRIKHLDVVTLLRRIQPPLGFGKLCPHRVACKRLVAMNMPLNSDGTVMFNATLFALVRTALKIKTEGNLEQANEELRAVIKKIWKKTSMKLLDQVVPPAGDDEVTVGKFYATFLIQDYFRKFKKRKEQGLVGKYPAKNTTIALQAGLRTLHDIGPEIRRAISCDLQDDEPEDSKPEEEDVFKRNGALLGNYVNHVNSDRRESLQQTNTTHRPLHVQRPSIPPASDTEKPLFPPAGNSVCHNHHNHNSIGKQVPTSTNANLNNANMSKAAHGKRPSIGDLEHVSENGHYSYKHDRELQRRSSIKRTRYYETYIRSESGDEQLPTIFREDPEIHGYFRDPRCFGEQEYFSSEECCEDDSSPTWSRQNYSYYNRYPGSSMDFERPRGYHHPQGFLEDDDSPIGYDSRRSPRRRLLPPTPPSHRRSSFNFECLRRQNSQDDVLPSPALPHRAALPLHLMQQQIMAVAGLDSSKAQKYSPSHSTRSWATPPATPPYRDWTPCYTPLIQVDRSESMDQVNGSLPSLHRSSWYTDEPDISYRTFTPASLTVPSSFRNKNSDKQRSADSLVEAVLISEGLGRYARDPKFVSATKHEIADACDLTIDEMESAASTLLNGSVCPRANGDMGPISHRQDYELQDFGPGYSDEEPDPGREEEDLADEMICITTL
- Test: Antagonist activity at rat Cav1.3 expressed in HEK293 cells assessed as inhibition of voltage pulse-induced calcium current by FLIPR calcium 4 assay
Consider the following molecules and their measured pIC50 readings.
Worth noting: pIC50 values are minus log10 of concentrations stated in mol/L.

# example entries with known answers
COC(=O)C1C(C)=NC(C)=C(C(=O)OCc2ccccc2)C1c1cccc([N+](=O)[O-])c1 (centres undefined) :: 7.82
C=C(C)C(=O)OCCOC(=O)C1=C(C)N=C(C)C(C(=O)OCC)C1c1cccc([N+](=O)[O-])c1 (centres undefined) :: 8.00
C=CCOC(=O)C1=C(C)N=C(C)C(C(=O)OCC)C1c1cccc([N+](=O)[O-])c1 (centres undefined) :: 7.82

Turning now to a further molecule:
Quick one: pIC50 of COC(=O)C1C(C)=NC(C)=C(C(=O)OC2C=CCCC2)C1c1cccc([N+](=O)[O-])c1 (centres undefined) ? 8.00
